assay: Cytotoxicity against HEL after 3 days; format: cell-based; conditions: human, HEL cells
metric: CC50 at 72 h (µM)
Write down the numeric answer in µM and omit the unit.

Known results for compounds:
[
  {
    "query.smiles": "CCCCNc1ncnc2c1ncn2C/C=C/CP(=O)(OCOC(=O)C(C)(C)C)OCOC(=O)C(C)(C)C",
    "recorded.value": 37.2
  },
  {
    "query.smiles": "CC(C)(C)C(=O)OCOP(=O)(C/C=C/Cn1cnc2c(NC3CC3)ncnc21)OCOC(=O)C(C)(C)C",
    "recorded.value": 39.6
  },
  {
    "query.smiles": "CC(C)(C)C(=O)OCOP(=O)(C/C=C/Cn1cnc2c(=O)[nH]cnc21)OCOC(=O)C(C)(C)C",
    "recorded.value": 51.9
  }
]

Read the next record carefully.
# compound CC(C)(C)C(=O)OCOP(=O)(C/C=C/Cn1cnc2c(NC3CC3)nc(N)nc21)OCOC(=O)C(C)(C)C ; its CC50 at 72 h = 2.3

====

# reported CC50 at 72 h; entries follow
experiment: Cytotoxicity against HEL after 3 days; assay type: cell-based; details: human, HEL cells
Write down the numeric answer in µM and omit the unit.

Known results for compounds:
[
  {
    "query.smiles": "CC(C)(C)C(=O)OCOP(=O)(C/C=C/Cn1cnc2c(=O)[nH]c(N)nc21)OCOC(=O)C(C)(C)C",
    "CC50 at 72 h / µM": 4.1
  },
  {
    "query.smiles": "CCCCNc1nc(N)nc2c1ncn2C/C=C/CP(=O)(OCOC(=O)C(C)(C)C)OCOC(=O)C(C)(C)C",
    "CC50 at 72 h / µM": 60
  },
  {
    "query.smiles": "CC(C)(C)C(=O)OCOP(=O)(C/C=C/Cn1cnc2c(N)nc(N)nc21)OCOC(=O)C(C)(C)C",
    "CC50 at 72 h / µM": 36
  }
]

# compound CC(C)(C)C(=O)OCOP(=O)(C/C=C/Cn1cnc2c(Cl)ncnc21)OCOC(=O)C(C)(C)C ; its CC50 at 72 h = 10.5

# compound CC(C)(C)C(=O)OCOP(=O)(C/C=C/Cn1cnc2c(N)ncnc21)OCOC(=O)C(C)(C)C ; its CC50 at 72 h = 11.6

# compound CC(C)c1ccc(Nc2nc(N)nc3c2ncn3C/C=C/CP(=O)(OCOC(=O)C(C)(C)C)OCOC(=O)C(C)(C)C)cc1 ; its CC50 at 72 h = 46

# compound CC(C)(C)C(=O)OCOP(=O)(C/C=C/Cn1cnc2c(NC3CCCCC3)nc(N)nc21)OCOC(=O)C(C)(C)C ; its CC50 at 72 h = 9

====

# reported EC50; entries follow
tested on: Felid alphaherpesvirus 1; assay: Antiviral activity against Feline herpesvirus infected in CRFK cells assessed as inhibition of virus-induced cytopathicity after 3 days; format: functional, organism-based; details: Felid alphaherpesvirus 1, CRFK, 72 h
Include the unit after the number when you answer.

[
  {
    "query.smiles": "Nc1nc2c(ncn2COC(CO)CO)c(=O)[nH]1",
    "EC50": "1.2 µM"
  }
]

Read the next record carefully.
# compound CC(C)(C)C(=O)OCOP(=O)(C/C=C/Cn1cnc2c(=O)[nH]c(N)nc21)OCOC(=O)C(C)(C)C ; its EC50 = 11 µM
